F (oral bioavailability) values, listed per item
# ASSAY: Comparative oral bioavailability / pharmacokinetic study, single intravenous and oral administration
# Type: in vivo
# TEST CONDITIONS: rat, 50 mg/kg po vs 5 mg/kg iv, Mean (CV %)

Take a look at these entries with their results.
{"COMPOUND": "[2H]C([2H])([2H])C(CCCCCCCCCCC(C([2H])([2H])[2H])(C([2H])([2H])[2H])C([2H])([2H])C(=O)O)(C([2H])([2H])[2H])C([2H])([2H])C(=O)O [Compound 1]", "F (oral bioavailability)": "91.0 (11.1) %"}
{"COMPOUND": "CC(C)(CCCCCCCCCCC(C)(C)CC(=O)O)CC(=O)O [Compound 1″, reference compound]", "F (oral bioavailability)": "69.6 (29.4) %"}
{"COMPOUND": "[2H]C([2H])([2H])C(CCCCCCCCCCCCC(C(=O)O)(C([2H])([2H])[2H])C([2H])([2H])[2H])(C(=O)O)C([2H])([2H])[2H] [Compound 7]", "F (oral bioavailability)": "102 (36.8) %"}

Now consider the entry below.
Task item: Entry under review: CC(C)(CCCCCCCCCCCCC(C)(C)C(=O)O)C(=O)O [Compound 7″, reference compound] . Reported F (oral bioavailability)?
Reply: 124 (28.3) %
